- System: Escherichia coli TOP10;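 also: peptides expressed intracellularly from a pBAD plasmid library in pooled LB shake-flask culture, induced with 0.3% L-arabinose, DNA abundance read by NGS, three biological replicates, DESeq2 with apeglm shrinkage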
- EXPERIMENTAL DETAILS: shrunken log2 fold change of peptide-encoding DNA abundance (4.5 h post-induction vs induction); higher = less antimicrobial activity (less host growth inhibition)
- CONDITION PARAMETERS: time post-induction: 4.5 h; library: site-saturation at positions 5, 18, 19, 20
PROPERTY LABEL: shrunken log2 fold change
Give bare numbers.

SEQ	EXPERIMENTAL TARGET	shrunken log2 fold change
RRIRGRPPRLPRPRPRPGSTPRP	Escherichia coli TOP10	0.75
RRIRIRPPRLPRPRPRPTDLPRP	Escherichia coli TOP10	-0.289

I have 2 sequences here; please give me shrunken log2 fold change for each one.
1. RRIRSRPPRLPRPRPRPMVQPRP
2. RRIRVRPPRLPRPRPRPLQHPRP

1: 0.13; 2: -0.177

Fill in the recorded shrunken log2 fold change for this sequence, with Escherichia coli TOP10 as test system: RRIRVRPPRLPRPRPRPLRLPRP 0.641
